# System: SUR1-T1397*/Kir6.2
# ASSAY_NAME: Current inhibition in inside-out patches in the absence of Mg2+
# Type: biochemical, Homo sapiens
# TEST_CONTEXT: Equation 4 fit to combined data
# Procedure: Currents were recorded from inside-out membrane patches excised from transfected HEK-293T cells. Pipettes were pulled to a resistance of 1–5 MΩ and filled with an extracellular solution containing (in mM) 140 KCl, 1.2 MgCl2, 2.6 CaCl2, and 10 HEPES, pH 7.4 or 140 KCl, 1 EGTA, 10 HEPES, pH 7.3. […]
METRIC: IC50 (µM)
Numbers only, in µM.

The value of IC50 measured for the compound Nc1ncnc2c1ncn2[C@@H]1O[C@H](COP(=O)(O)OP(=O)(O)OP(=O)(O)O)[C@@H](O)[C@H]1O turned out to be 49.2
